assay: recombinant barcode read abundance after kanamycin selection (control-corrected) (log10(CPM+1)); higher = more efficient recombination; sequences stand for … in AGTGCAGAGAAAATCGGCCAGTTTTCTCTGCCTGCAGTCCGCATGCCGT…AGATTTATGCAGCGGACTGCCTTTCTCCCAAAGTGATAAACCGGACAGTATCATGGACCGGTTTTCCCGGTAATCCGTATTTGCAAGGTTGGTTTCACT; site = the 11-nt target;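 further: IS621 recombinase and bridge RNA in Escherichia coli cells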
For each of the sequences below, state its recombinant barcode read abundance (log10).
Just the number, please, no unit after it.

Query: Tell me its recombinant barcode read abundance (log10) given AGAAAAGCTTGGGTTCTAACCTGTTGCAA (site AGAAAAGCTTT) as the entry.
Response: 1.06

Query: Indicate its recorded recombinant barcode read abundance (log10); the sequence in question is GGTGCTCCTTGGGTTCTAACCTGTTGCAC (site GGTGCTCCTAT)
Response: 0.085

Query: Please supply the value of reported recombinant barcode read abundance (log10) for the item GCCTGAGCTTGGGTTCTAACCTGTTGCCT (site GCTTGAGCTAG)
Response: 0

Query: Please report the measured recombinant barcode read abundance (log10) for ACACTCCCTTGGGTTCTAACCTGTTGCCT (site ACACTCCCTAG)
Response: 0.294

Query: In one line, give reported recombinant barcode read abundance (log10) of the entry GTCGGAGCTTGGGTTCTAACCTGTTGCAG (site GTCGGAGCTCT) .
Response: 1.89

Query: Given the sequence TGGATCACTTGGGTTCTAACCTGTTGCCT (site TGGAGCACTAG) , write its reported recombinant barcode read abundance (log10).
Response: 0.0771

Query: Give reported recombinant barcode read abundance (log10) value for AATTCGGCTTGGGTTCTAACCTGTTGCCT (site AATTCGGCTAG)
Response: 0.305

Query: Give recombinant barcode read abundance (log10) for CCAACCGCTTGGGTTCTAACCTGTTGCCT (site CTAACCGCTAG)
Response: 0.0644

Query: Fill in reported recombinant barcode read abundance (log10) for this entry: TCTGAGGCTTGGGTTCTAACCTGTTGCTG (site TCTGAGGCTCA)
Response: 0.455

Query: Recall and state the measured recombinant barcode read abundance (log10) for AGTACCTCTTGGGTTCTAACCTGTTGCCT (site AATACCTCTAG) .
Response: 0.192

Query: Give the measured recombinant barcode read abundance (log10) for CTTCAACCTTGGGTTCTAACCTGTTGCCT (site CTTCACCCTAG)
Response: 0.215

Query: Return value of recombinant barcode read abundance (log10) for input TGATCTCCTTGGGTTCTAACCTGTTGCAT (site TGATCTCCTAT) , no commentary.
Response: 0.28

Query: Given GTATGAGCTTGGGTTCTAACCTGTTGCCA (site GTATGAGCTTG) , respond with its recombinant barcode read abundance (log10).
Response: 0.906

Query: Give the reported value of recombinant barcode read abundance (log10) for this record: ATTAAGACTTGGGTTCTAACCTGTTGCCT (site ATCAAGACTAG)
Response: 0.484

Query: Given GGACGCCCTTGGGTTCTAACCTGTTGCCT (site GGACGACCTAG) , respond with its recombinant barcode read abundance (log10).
Response: 0.427

Query: Retrieve recombinant barcode read abundance (log10) measured for GGAGAGTCTTGGGTTCTAACCTGTTGCCT (site GAAGAGTCTAG) and print it.
Response: 2.17

Query: Read the entry CTAGATTCTTGGGTTCTAACCTGTTGCCT (site CTAGATTCTAG) and write its reported recombinant barcode read abundance (log10).
Response: 1.49

Query: Give recombinant barcode read abundance (log10) for the following sequence: AGTCTAGCTTGGGTTCTAACCTGTTGCCG (site AGTCTAGCTGG)
Response: 0.0274

Query: Tell us which recombinant barcode read abundance (log10) value is on record for CGTATGTCTTGGGTTCTAACCTGTTGCCT (site TGTATGTCTAG)
Response: 0.189

Query: // fetch recombinant barcode read abundance (log10) given entry AAGTGCTCTTGGGTTCTAACCTGTTGCCT (site AGGTGCTCTAG)
Response: 0.124

Query: Give the value of recombinant barcode read abundance (log10) reported for the following: AAGCCACCTTGGGTTCTAACCTGTTGCCT (site CAGCCACCTAG)
Response: 0.126
